For each record, write down the corresponding IC50.
Target: UniProt:P48048
Sequence (P48048 whole entry): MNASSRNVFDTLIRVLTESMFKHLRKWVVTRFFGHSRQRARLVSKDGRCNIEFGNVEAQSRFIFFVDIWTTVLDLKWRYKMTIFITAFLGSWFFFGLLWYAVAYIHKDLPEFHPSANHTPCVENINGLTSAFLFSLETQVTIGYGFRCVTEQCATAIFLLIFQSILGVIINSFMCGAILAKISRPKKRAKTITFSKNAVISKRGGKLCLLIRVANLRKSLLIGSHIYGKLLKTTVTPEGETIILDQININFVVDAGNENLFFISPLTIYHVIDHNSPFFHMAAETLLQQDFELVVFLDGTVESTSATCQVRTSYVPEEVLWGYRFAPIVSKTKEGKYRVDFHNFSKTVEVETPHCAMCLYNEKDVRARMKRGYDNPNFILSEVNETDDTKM
Experiment: Thallium Flux Assay (ROMK channel functional thallium flux assay)
Settings: HEK293 cells stably expressing hROMK (hKir1.1); FluxOR thallium flux, FLIPR-Tetra, 30 min compound incubation; read-out: ROMK TI IC50
Description: The following Thallium Flux Assay was performed on each of the final product compounds in the Examples. […] The fluorescence intensity of wells containing 3 μM of a standard control ROMK inhibitor of the present invention was used to define the ROMK-sensitive component of thallium flux. Fluorescence in the presence of test compounds was normalized to control values to provide % fluorescence change.
Give the quantity in nM, number only.

Asked: Annotate the compound Cc1c([C@@H](O)CN2CCC3(CC2)CCN(c2cncc(N)n2)CC3)ccc2c1COC2=O with its measured IC50.
Given back: 68.3

Asked: Annotate the compound Cc1c([C@@H](O)CN2CCC3(CC2)CCN(c2ccns2)C3)ccc2c1COC2=O with its measured IC50.
Given back: 149

Asked: Annotate the compound COc1ncc(N2CCC3(CCN(C[C@H](O)c4ccc5c(c4C)COC5=O)CC3)C2=O)cn1 with its measured IC50.
Given back: 142

Asked: Annotate the compound Cc1c([C@@H](O)CN2CCC3(CC2)CCN(c2cncc(F)c2)C3=O)ccc2c1COC2=O with its measured IC50.
Given back: 82.5
